- procedure.summary: Terminal half life in mouse at 10 mg/kg, po by LC-MS/MS analysis
- Type: ADME, organism-based
- experimental.setup: in vivo, read-out: beta t1/2 (converted)
observed.property: half-life (h)
Numbers only, in h.

Q. Returns the measured half-life for the input compound. Input: Cc1ccc(-c2cnc(NCc3c(F)ccc4c3CCO4)n3cnc(S(C)(=O)=O)c23)c(C)n1
A. 2.1

---

Record set of pIC50 for target or system Polycomb protein EED (Homo sapiens, UniProt O75530).
Give bare numbers, as −log10 of the molar value.

Below: 3 compounds and their reported pIC50.
[
  {
    "line.notation": "CS(=O)(=O)c1ncn2c(NCc3c(F)ccc4c3CCO4)ncc(C3CCN(S(=O)(=O)C4CC4)CC3)c12",
    "pIC50": 8.51
  },
  {
    "line.notation": "CS(=O)(=O)c1ncn2c(NCc3c(F)ccc4c3CCO4)ncc(-c3ccc(C(F)(F)F)nc3)c12",
    "pIC50": 9.52
  },
  {
    "line.notation": "Cc1cc(S(C)(=O)=O)ccc1-c1cnc(NCc2c(F)ccc3c2CCO3)n2cnc(S(C)(=O)=O)c12",
    "pIC50": 9.05
  }
]

Q. Given CC(=O)N1CCC(c2cnc(NCc3c(F)ccc4c3CCO4)n3cnc(S(C)(=O)=O)c23)CC1 , state its recorded pIC50.
A. 8.55

---

- tested.target: Polycomb protein EED (Homo sapiens)
- Sequence (O75530 whole entry): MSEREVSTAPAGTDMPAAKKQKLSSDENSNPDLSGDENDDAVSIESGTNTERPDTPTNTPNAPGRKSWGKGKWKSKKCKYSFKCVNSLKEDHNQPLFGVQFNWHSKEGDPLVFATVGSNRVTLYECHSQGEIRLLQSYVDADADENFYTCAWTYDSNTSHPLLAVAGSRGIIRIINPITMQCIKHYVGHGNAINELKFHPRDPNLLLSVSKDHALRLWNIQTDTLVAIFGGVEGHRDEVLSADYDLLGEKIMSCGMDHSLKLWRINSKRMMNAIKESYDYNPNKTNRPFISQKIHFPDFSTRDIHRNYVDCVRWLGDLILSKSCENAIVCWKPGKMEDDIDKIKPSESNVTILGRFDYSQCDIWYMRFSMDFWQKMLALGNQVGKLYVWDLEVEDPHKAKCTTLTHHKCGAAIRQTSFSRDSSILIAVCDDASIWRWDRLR
I'd appreciate it if you marked entries satisfied when IC50 is lower than 8 nM and not satisfied when it is not.

[
  {
    "line.notation": "Cc1ccc(-c2cnc(NCc3c(F)ccc4c3CCO4)n3cnc(S(C)(=O)=O)c23)c(C)n1",
    "assigned.class": "satisfied"
  },
  {
    "line.notation": "Cn1cc(-c2cnc(NCc3c(F)ccc4c3CCO4)n3cnc(S(C)(=O)=O)c23)cn1",
    "assigned.class": "satisfied"
  },
  {
    "line.notation": "CCOC(=O)c1ncn2c(NCc3c(F)cccc3OC)ncc(-c3ccccc3)c12",
    "assigned.class": "not satisfied"
  },
  {
    "line.notation": "CS(=O)(=O)c1ncn2c(NCc3c(F)ccc4c3CCO4)ncc(C3CCOCC3)c12",
    "assigned.class": "not satisfied"
  },
  {
    "line.notation": "CS(=O)(=O)c1ncn2c(NCc3c(F)ccc4c3CCO4)ncc(-c3ccc(C(F)F)nc3)c12",
    "assigned.class": "satisfied"
  }
]

Q. Is 8 nM strictly greater than the molecule's reported IC50? molecule: CCN1CCC(c2cnc(NCc3c(F)ccc4c3CCO4)n3cnc(S(C)(=O)=O)c23)CC1
A. not satisfied

Q. Lab note: IC50 threshold 8 nM. Does this molecule come in strictly under it? CCOC(=O)c1ncn2c(NCc3cccc4c3OCO4)ncc(-c3ccccc3)c12
A. not satisfied

---

- procedure.summary: Plasma concentration in mouse at 25 mg/kg, po after 6 hrs by LC-MS/MS analysis
- Format: ADME, organism-based
Consider the following molecules; for each one, report its concentration at 6 h.
One number for each entry, in ng/mL.

Recorded results for 6 molecules are shown here.
[
  {
    "line.notation": "Cc1nc(C(F)(F)F)ccc1-c1cnc(NCc2c(F)ccc3c2CCO3)n2cnc(S(C)(=O)=O)c12",
    "unit.label": "ng/mL",
    "concentration at 6 h": 415
  },
  {
    "line.notation": "Cc1ccc(-c2cnc(NCc3c(F)ccc4c3CCO4)n3cnc(S(C)(=O)=O)c23)c(C)n1",
    "unit.label": "ng/mL",
    "concentration at 6 h": 485
  },
  {
    "line.notation": "CS(=O)(=O)c1ncn2c(NCc3c(F)ccc4c3CCO4)ncc(-c3ccc(C4CC4)nc3)c12",
    "unit.label": "ng/mL",
    "concentration at 6 h": 452
  },
  {
    "line.notation": "Cc1ccc(-c2cnc(NCc3c(F)ccc4c3CCO4)n3cnc(S(C)(=O)=O)c23)cn1",
    "unit.label": "ng/mL",
    "concentration at 6 h": 29
  },
  {
    "line.notation": "Cc1cc(S(C)(=O)=O)ccc1-c1cnc(NCc2c(F)ccc3c2CCO3)n2cnc(S(C)(=O)=O)c12",
    "unit.label": "ng/mL",
    "concentration at 6 h": 98
  },
  {
    "line.notation": "CS(=O)(=O)c1ccc(-c2cnc(NCc3c(F)ccc4c3CCO4)n3cnc(S(C)(=O)=O)c23)cn1",
    "unit.label": "ng/mL",
    "concentration at 6 h": 41
  }
]

I would be grateful if you could provide concentration at 6 h for each of the following entries.
1. CS(=O)(=O)c1ncn2c(NCc3c(F)ccc4c3CCO4)ncc(-c3ccc(C(F)(F)F)nc3)c12
2. Cn1cc(-c2cnc(NCc3c(F)ccc4c3CCO4)n3cnc(S(C)(=O)=O)c23)cn1
3. CS(=O)(=O)c1ccc(-c2cnc(NCc3c(F)ccc4c3CCO4)n3cnc(S(C)(=O)=O)c23)cc1
4. Cc1ncccc1-c1cnc(NCc2c(F)ccc3c2CCO3)n2cnc(S(C)(=O)=O)c12

A.
1. 139
2. 56
3. 109
4. 91
